system: Escherichia coli TOP10; experiment: shrunken log2 fold change of peptide-encoding DNA abundance (4.5 h post-induction vs induction); higher = less antimicrobial activity (less host growth inhibition); conditions: time post-induction: 4.5 h; library: site-saturation at positions 5, 18, 19, 20

# sequenceChain, shrunken log2 fold change
measured = [
    ("RRIRTRPPRLPRPRPRPGEGPRP", 0.177),
    ("RRIRSRPPRLPRPRPRPHCRPRP", -0.172),
    ("RRIRVRPPRLPRPRPRPNFYPRP", -0.146),
    ("RRIRARPPRLPRPRPRPFTLPRP", -0.543),
    ("RRIRNRPPRLPRPRPRPEYSPRP", -0.272),
    ("RRIRCRPPRLPRPRPRPMWKPRP", -0.0547),
    ("RRIRFRPPRLPRPRPRPAYFPRP", -0.108),
    ("RRIRTRPPRLPRPRPRPATQPRP", 1.54),
    ("RRIRIRPPRLPRPRPRPCFHPRP", -0.532),
    ("RRIRLRPPRLPRPRPRPMFKPRP", -0.245),
    ("RRIRWRPPRLPRPRPRPGAHPRP", 0.32),
    ("RRIRHRPPRLPRPRPRPIREPRP", -0.00145),
    ("RRIRSRPPRLPRPRPRPCYSPRP", -0.839),
    ("RRIRHRPPRLPRPRPRPRYTPRP", -0.123),
    ("RRIRYRPPRLPRPRPRPTMGPRP", 0.0568),
    ("RRIRARPPRLPRPRPRPSPMPRP", 0.173),
    ("RRIRKRPPRLPRPRPRPMGRPRP", -0.0264),
    ("RRIRGRPPRLPRPRPRPAQSPRP", 0.723),
    ("RRIRNRPPRLPRPRPRPRLHPRP", 0.0921),
    ("RRIRRRPPRLPRPRPRPYIKPRP", -0.509),
    ("RRIRIRPPRLPRPRPRPDEDPRP", -0.00875),
    ("RRIRTRPPRLPRPRPRPEFSPRP", 0.00789),
    ("RRIRSRPPRLPRPRPRPEECPRP", 0.251),
    ("RRIRRRPPRLPRPRPRPLWTPRP", 0.129),
    ("RRIRGRPPRLPRPRPRPKKYPRP", 0.119),
    ("RRIRYRPPRLPRPRPRPPKCPRP", -0.813),
    ("RRIRDRPPRLPRPRPRPPESPRP", 0.822),
]

====

Readings of shrunken log2 fold change for the listed sequences
tested on: Escherichia coli TOP10; assay: shrunken log2 fold change of peptide-encoding DNA abundance (4.5 h post-induction vs induction); higher = less antimicrobial activity (less host growth inhibition); conditions: time post-induction: 4.5 h; library: site-saturation at positions 5, 18, 19, 20;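 further: peptides expressed intracellularly from a pBAD plasmid library in pooled LB shake-flask culture, induced with 0.3% L-arabinose, DNA abundance read by NGS, three biological replicates, DESeq2 with apeglm shrinkage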

# sequenceChain, shrunken log2 fold change
records = [
    ("RRIRGRPPRLPRPRPRPRGKPRP", 0.341),
    ("RRIRFRPPRLPRPRPRPQSKPRP", 0.379),
    ("RRIRQRPPRLPRPRPRPDLAPRP", -0.0142),
    ("RRIRSRPPRLPRPRPRPISIPRP", 0.0336),
    ("RRIRMRPPRLPRPRPRPVMSPRP", 0.134),
    ("RRIRERPPRLPRPRPRPEQHPRP", -0.0123),
    ("RRIRSRPPRLPRPRPRPPFDPRP", 0.244),
    ("RRIRFRPPRLPRPRPRPLRTPRP", 0.703),
    ("RRIRIRPPRLPRPRPRPKHKPRP", -0.508),
    ("RRIRVRPPRLPRPRPRPLMIPRP", -0.361),
    ("RRIRCRPPRLPRPRPRPEAPPRP", 0.755),
    ("RRIRCRPPRLPRPRPRPGTKPRP", -0.404),
    ("RRIRTRPPRLPRPRPRPPRLPRP", 0.343),
    ("RRIRSRPPRLPRPRPRPPRMPRP", 0.274),
    ("RRIRVRPPRLPRPRPRPKASPRP", 0.0977),
    ("RRIRKRPPRLPRPRPRPHRQPRP", 0.277),
    ("RRIRCRPPRLPRPRPRPRSSPRP", -0.138),
    ("RRIRDRPPRLPRPRPRPTAKPRP", -0.00144),
    ("RRIRLRPPRLPRPRPRPTPGPRP", 0.557),
    ("RRIRQRPPRLPRPRPRPVLTPRP", 0.0694),
]

From: the supplement of paper PMC9112550
